conditions: in toluene, 303.35 K
reported.property: solubility (mole fraction)
Reply briefly: the number, and no unit.

Entry under test: c1ccc(OP2(Oc3ccccc3)=NP(Oc3ccccc3)(Oc3ccccc3)=NP(Oc3ccccc3)(Oc3ccccc3)=N2)cc1 . Its solubility (mole fraction) was 0.0717

====

conditions: in acetone, 313.45 K
reported.property: solubility (mole fraction)
Reply briefly: the number, and no unit.

Entry under test: O=[PH](O)c1ccccc1 . Its solubility (mole fraction) was 0.124

====

conditions: in ethyl acetate, 300.95 K
reported.property: solubility (mole fraction)
Reply briefly: the number, and no unit.

Entry under test: c1ccc(OP2(Oc3ccccc3)=NP(Oc3ccccc3)(Oc3ccccc3)=NP(Oc3ccccc3)(Oc3ccccc3)=N2)cc1 . Its solubility (mole fraction) was 0.0655

====

details: in toluene, 303.45 K
reported.property: solubility (mole fraction)

Entry under test: O=[PH](O)c1ccccc1 . Its solubility (mole fraction) was 0.0389

====

conditions: in ethanol, 323.05 K
reported.property: solubility (mole fraction)
Reply briefly: the number, and no unit.

Entry under test: c1ccc(OP2(Oc3ccccc3)=NP(Oc3ccccc3)(Oc3ccccc3)=NP(Oc3ccccc3)(Oc3ccccc3)=N2)cc1 . Its solubility (mole fraction) was 0.0136

====

conditions: in acetone, 314.25 K
reported.property: solubility (mole fraction)
Reply briefly: the number, and no unit.

Entry under test: c1ccc(OP2(Oc3ccccc3)=NP(Oc3ccccc3)(Oc3ccccc3)=NP(Oc3ccccc3)(Oc3ccccc3)=N2)cc1 . Its solubility (mole fraction) was 0.0782

====

settings: in benzene, 298.15 K
reported.property: solubility (mole fraction)
Reply briefly: the number, and no unit.

Entry under test: CP(=O)(O)c1ccccc1 . Its solubility (mole fraction) was 0.0541

====

conditions: in chloroform, 323.15 K
reported.property: solubility (mole fraction)
Reply briefly: the number, and no unit.

Entry under test: CP(=O)(O)c1ccccc1 . Its solubility (mole fraction) was 0.288

====

settings: in chloroform, 303.25 K
reported.property: solubility (mole fraction)
Reply briefly: the number, and no unit.

Entry under test: O=[PH](O)c1ccccc1 . Its solubility (mole fraction) was 0.186

====

conditions: in water, 328.15 K
reported.property: solubility (mole fraction)

Entry under test: O=[PH](O)c1ccccc1 . Its solubility (mole fraction) was 0.085

====

conditions: in toluene, 323.35 K
reported.property: solubility (mole fraction)
Reply briefly: the number, and no unit.

Entry under test: O=[PH](O)c1ccccc1 . Its solubility (mole fraction) was 0.125

====

details: in acetonitrile, 308.25 K
reported.property: solubility (mole fraction)
Reply briefly: the number, and no unit.

Entry under test: c1ccc(OP2(Oc3ccccc3)=NP(Oc3ccccc3)(Oc3ccccc3)=NP(Oc3ccccc3)(Oc3ccccc3)=N2)cc1 . Its solubility (mole fraction) was 0.0082

====

conditions: in 2-ethoxyethanol, 310.15 K
reported.property: solubility (mole fraction)
Reply briefly: the number, and no unit.

Entry under test: c1ccc(OP2(Oc3ccccc3)=NP(Oc3ccccc3)(Oc3ccccc3)=NP(Oc3ccccc3)(Oc3ccccc3)=N2)cc1 . Its solubility (mole fraction) was 0.0106

====

conditions: in water, 318.15 K
reported.property: solubility (mole fraction)
Reply briefly: the number, and no unit.

Entry under test: O=[PH](O)c1ccccc1 . Its solubility (mole fraction) was 0.0433

====

conditions: in methanol, 323.15 K
reported.property: solubility (mole fraction)
Reply briefly: the number, and no unit.

Entry under test: CP(=O)(O)c1ccccc1 . Its solubility (mole fraction) was 0.471

These measurements were taken from BigSolDB 2.1.
